Where do the numbers come from? From PubChem BioAssay.

test-details: basal S. cerevisiae growth modulation, no modifier, primary screen, OD600, strain BY4716, 24 h, basal condition (AID 1173)
measurement-setup: OD600, 24 h, higher = more signal, called active from +8 up or from −8 down
measurement-kind: z-score
Numbers only.

Here's what some known entries look like.
Name the recorded z-score for CCC(CC)C(O)C1C=CC2C(=O)NC(=O)C2N1Nc1ccccn1 (centres undefined) .
0.341

Item: COCCOC(=O)N1C(=O)[C@@]2(c3cc(C#CCC(C(=O)OC)C(=O)OC)ccc31)[C@H](C(=O)Nc1nc3ccccc3s1)[C@H]1C(=O)O[C@H](c3ccccc3)[C@H](c3ccccc3)N1[C@@H]2c1ccccc1OCCO
1.3

Item: CCC[C@@H]1C[C@@]1(CCC)[C@@H](NC(=O)c1ccccc1)c1cccc(Cl)c1
1.74

Item: O=C1C[C@@](C(=O)NCCN2CCOCC2)(c2ccc([N+](=O)[O-])cc2)[C@@H](c2ccc(CO)cc2I)N1CC12CC3CC(CC(C3)C1)C2
-12.9

Item: CCCCCCc1nc(-c2cc(C)c(OC)c(C)c2)cc2c1[Si](C(C)C)(C(C)C)OC2
-1.09

Each compound below has a reported value. Please supply its z-score.
1. [N-]=[N+]=Nc1ccccc1[C@H]1OC(c2ccc(OCCCO)cc2)=N[C@@]1(CCS(=O)(=O)c1ccccc1)C(=O)NCC(O)CO (some centres undefined)
2. C=C(COC)C(=O)CC[C@@H](OC(C)=O)c1ccc(CO)o1
3. C=CCN1C(=O)[C@@]2(CC=C)N=C(c3ccc(OCCCO)cc3)O[C@H]2c2ccccc21
4. COC(=O)[C@@]1(Cc2ccc(OC)cc2)[C@@H]2C(=CC(=O)[C@H]2CC(=O)C(=O)N2CCCC2)CN1C(=O)c1ccccc1
5. O=C(NCCN1CCOCC1)C1N=C(c2ccc(OCCCO)cc2)N(c2ccccc2)O1 (centres undefined)
6. COc1ccc([Si](C)(C)[C@@H]2[C@@H](CC(=O)N3CCC[C@H]3CO)O[C@]3(C(=O)N(c4ccccc4)c4ccccc43)[C@H]2C)cc1

1. -0.484
2. 0.227
3. -2.87
4. 1.1
5. 0.554
6. -1.39

Each compound below has a reported value. Please supply its z-score.
1. CC(C)C[C@@H]1NC(=O)[C@@H]2C[C@H](C(=O)O)[C@H](c3cccc(OCCO)c3)N2C1=O
2. [N-]=[N+]=Nc1ccccc1[C@@H]1OC(c2ccc(OCCCO)cc2)=N[C@]1(CCS(=O)(=O)c1ccccc1)C(N)=O
3. C=C(CCCC)/C(=C/C[C@@H](OC(C)=O)c1ccc(OCCO)cc1)c1cnc2ccccc2c1

-0.0664
-0.0185
-0.845

----------
system-name: Focal adhesion kinase 1 (Homo sapiens) (UniProt Q05397)
Sequence (Q05397 whole entry, looked up): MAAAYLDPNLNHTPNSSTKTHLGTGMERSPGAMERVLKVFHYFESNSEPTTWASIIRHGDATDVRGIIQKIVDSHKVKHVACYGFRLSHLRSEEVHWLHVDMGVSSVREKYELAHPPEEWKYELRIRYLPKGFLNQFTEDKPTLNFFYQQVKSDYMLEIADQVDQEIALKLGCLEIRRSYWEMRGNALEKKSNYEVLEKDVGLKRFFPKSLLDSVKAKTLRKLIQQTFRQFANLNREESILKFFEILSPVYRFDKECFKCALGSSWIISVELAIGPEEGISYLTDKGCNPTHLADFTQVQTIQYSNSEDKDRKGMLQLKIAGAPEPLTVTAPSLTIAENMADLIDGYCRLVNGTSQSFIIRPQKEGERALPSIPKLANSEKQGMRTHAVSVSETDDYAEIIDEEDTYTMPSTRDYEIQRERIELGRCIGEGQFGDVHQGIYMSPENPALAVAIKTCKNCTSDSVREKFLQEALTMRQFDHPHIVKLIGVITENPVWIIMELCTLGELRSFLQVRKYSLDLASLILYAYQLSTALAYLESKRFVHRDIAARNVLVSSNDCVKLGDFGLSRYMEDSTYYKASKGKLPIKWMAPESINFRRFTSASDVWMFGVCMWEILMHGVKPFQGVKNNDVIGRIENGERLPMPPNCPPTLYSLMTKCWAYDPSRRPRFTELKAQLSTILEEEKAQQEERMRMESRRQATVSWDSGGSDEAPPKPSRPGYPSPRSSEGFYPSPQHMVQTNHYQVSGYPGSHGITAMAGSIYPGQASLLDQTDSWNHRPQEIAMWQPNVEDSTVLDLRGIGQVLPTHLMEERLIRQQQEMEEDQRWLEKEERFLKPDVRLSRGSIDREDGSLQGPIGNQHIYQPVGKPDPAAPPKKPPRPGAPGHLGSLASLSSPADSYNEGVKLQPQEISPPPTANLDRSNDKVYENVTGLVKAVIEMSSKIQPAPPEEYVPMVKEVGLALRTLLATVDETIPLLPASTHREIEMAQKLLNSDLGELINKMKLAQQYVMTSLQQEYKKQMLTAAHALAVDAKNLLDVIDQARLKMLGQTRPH
test-details: small-molecule microarray binders of FAK, primary screen, biochemical, 635/667 nm fluorescence, BSA, DTT (AID 1130);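 also: composite of spot emission at 667 nm and signal to noise over triplicate slides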
measurement-setup: PTK2 binding, 635 nm fluorescence, higher = more signal
Kindly supply the reported composite z-score values for the records listed here.
One number for each entry.

Here's what some known entries look like.
Name the recorded composite z-score for CO[C@H]1O[C@H](CO)[C@@H](OC(=O)Nc2cccc(F)c2)[C@H](OC(=O)Nc2ccccc2)[C@@H]1OC(=O)Nc1ccccc1 .
0.919

Item: COC(=O)[C@H](Cc1ccccc1)N[C@@H](/C=C/C1CC1)[C@H](O)Cc1ccccc1
-0.415

Item: COC(=O)C(CC#Cc1ccc2c(c1)[C@]1(C(=O)N2)[C@H](C(=O)Nc2nc3ccccc3s2)[C@H]2C(=O)O[C@H](c3ccccc3)[C@H](c3ccccc3)N2[C@@H]1c1ccc(O)cc1)C(=O)OC
0.936

Item: C=CCOC(=O)[C@@H]1[C@H]2C(=O)O[C@H](c3ccccc3)[C@H](c3ccccc3)N2[C@H](c2ccc(OCCOC(=O)[C@H]3C[C@H]4C(=O)N5CCC[C@H]5C(=O)N4[C@H]3c3ccc(O)cc3)cc2)[C@@]12C(=O)Nc1ccc(I)cc12
0.453

Item: COC(=O)[C@@]1(Cc2ccc(F)cc2)[C@H]2c3cc(C(=O)N(C)C)n(Cc4cc(F)c(F)c(F)c4)c3C[C@H]2CN1C(=O)c1ccccc1
0.538

Lab note: next compound to report on.
Name the recorded composite z-score for COc1cc2c(cc1O)C(c1cccs1)N(C)CC2 (stereo unspecified) .
0.756

----------
Test system: Fibrinogen (Alexa647-labelled)
test-details: fibrinogen binders on compound microarrays, profiling panel, artefact control for SMM control-protein annotation, biochemical, small-molecule microarray, 635/667 nm fluorescence (AID 1131);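 also: z-score merges 667 nm fluorescence with per-spot signal-to-noise over triplicate slides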
measurement-setup: fibrinogen-A647 binding fluorescence, higher = more signal
Kindly supply the reported composite z-score values for the records listed here.

Here's what some known entries look like.
Name the recorded composite z-score for Cc1ccc(N2C(=O)c3ccccc3[C@@H](C(=O)NC3CC3)[C@@H]2c2ccc(CO)cc2)nc1 .
-3.9

Item: COC(=O)[C@@]1(Cc2ccc(F)cc2)[C@H]2c3cc(C(=O)N(C)C)n(Cc4ccccc4)c3C[C@H]2CN1C(=O)c1ccccc1
0.91

Item: CC(=O)n1cc(C(O)C2C=CC3C(=O)N(c4ccccc4)C(=O)C3N2Nc2ccc([N+](=O)[O-])cc2)c2ccccc21 (stereo not given)
0.916

Item: CC(C)[Si](C#Cc1ccc(Oc2ccccc2)cc1)(O[Si](C#Cc1ccc(Oc2ccccc2)cc1)(C(C)C)C(C)C)C(C)C
0.654

Item: COCC(=C=CC[C@@H](O)c1cccc(OCCO)c1)C[C@@H](O)c1ccccn1
0.263

Item: CC(C)NC(=O)[C@@H]1c2ccccc2C(=O)N(C2Cc3ccccc3C2)[C@H]1c1ccc(CO)cc1
0.445

Item: CCCCN1CC=CC23O[C@@H]4C=CCCOC(=O)C4[C@H]2C(=O)N(CCCCCCO)[C@@H]3C1=O (stereo not given in full)
-0.796

Item: O=C(c1ccccc1)N1Cc2ccccc2C[C@@]2(COC(c3ccc(OCCCO)cc3)=N2)C1=O
0.905

Each molecule below has a reported value. Please supply its composite z-score.
1. O=C1C2C=CC(C(O)c3cccc4ccccc34)N(Nc3ccccc3F)C2C(=O)N1c1ccccc1 (stereo not given)
2. COc1cc2c(cc1OC)CN(C(=O)[C@@H]1[C@H]3C(=O)O[C@H](c4ccccc4)[C@H](c4ccccc4)N3[C@H](c3ccccc3OCCO)[C@@]13C(=O)Nc1ccc(C#CCCO)cc13)CC2

1
0.966

----------
test-details: small-molecule microarray binders of probe aWnt5a, primary screen, biochemical, biotinylated probe, 635/667 nm fluorescence (AID 1113);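 also: score merges 667 nm fluorescence intensity with signal-to-noise per printed feature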
measurement-setup: higher = more signal
Kindly supply the reported composite z-score values for the records listed here.
Give bare numbers.

Here's what some known entries look like.
Name the recorded composite z-score for COc1cc2c(cc1OC)CN(C(=O)[C@H]1[C@@H]3C(=O)O[C@@H](c4ccccc4)[C@@H](c4ccccc4)N3[C@@H](c3ccc(O)cc3)[C@]13C(=O)Nc1ccccc13)CC2 .
-0.166

Item: C=CCNC(=O)[C@@H]1[C@H]2C(=O)O[C@H](c3ccccc3)[C@H](c3ccccc3)N2[C@H](c2ccc(OCCO)cc2)[C@@]12C(=O)Nc1ccc(C#CCC(C(=O)OC)C(=O)OC)cc12
0.105

Each compound below has a reported value. Please supply its composite z-score.
1. COc1ccccc1CN1C(=O)c2ccccc2[C@@H](C(=O)NC2CC2)[C@@H]1c1ccc(CO)cc1
2. CC[C@@H]1C=C(C(=O)O)[C@H](c2ccc(Br)cc2)N1S(=O)(=O)c1ccc(C)cc1
3. O=C1NC(=O)C2C1C=CC(C(O)c1cccs1)N2Nc1ccc(Cl)cc1Cl (stereo not given)
4. CC(C)N1C(=O)C[C@@](C(=O)NCC(F)(F)F)(c2ccc([N+](=O)[O-])cc2)[C@H]1c1ccc(CO)cc1

[-0.0512, -0.154, -0.212, -0.178]

Each compound below has a reported value. Please supply its composite z-score.
1. CN(C)CCCC[C@@H]1NC(=O)[C@H]2C[C@@H](C(=O)NCCCCCCN)[C@@H](c3ccc(O)cc3)N2C1=O
2. C=CCOC(=O)[C@@H]1[C@H]2C(=O)O[C@H](c3ccccc3)[C@H](c3ccccc3)N2[C@H](c2ccc(OCCOC(=O)[C@@H]3C[C@@H]4C(=O)NCC(=O)N4[C@@H]3c3ccc(O)cc3)cc2)[C@@]12C(=O)Nc1ccc(I)cc12
3. CC(C)NC(=O)[C@@]1(C)c2ccccc2C(=O)N(Cc2cc(C(F)(F)F)cc(C(F)(F)F)c2)[C@H]1c1ccc(CO)cc1
4. CCCC[C@@H]1C[C@H]1[C@@H](NC(=O)c1ccco1)c1ccccc1C(F)(F)F
5. COC(=O)[C@@]1(Cc2ccc(F)cc2)[C@H]2c3cc(C(=O)N4CCCC4)n(CCCNc4ncc(C(F)(F)F)cc4Cl)c3C[C@H]2CN1C(=O)c1ccccc1

1. 0.257
2. -0.101
3. -0.101
4. 0.948
5. -0.0107
